These measurements were taken from ChEMBL document CHEMBL6114998.

- Tested Target: Ectonucleotide pyrophosphatase/phosphodiesterase family member 1 (Homo sapiens)
- Sequence (P22413 whole entry): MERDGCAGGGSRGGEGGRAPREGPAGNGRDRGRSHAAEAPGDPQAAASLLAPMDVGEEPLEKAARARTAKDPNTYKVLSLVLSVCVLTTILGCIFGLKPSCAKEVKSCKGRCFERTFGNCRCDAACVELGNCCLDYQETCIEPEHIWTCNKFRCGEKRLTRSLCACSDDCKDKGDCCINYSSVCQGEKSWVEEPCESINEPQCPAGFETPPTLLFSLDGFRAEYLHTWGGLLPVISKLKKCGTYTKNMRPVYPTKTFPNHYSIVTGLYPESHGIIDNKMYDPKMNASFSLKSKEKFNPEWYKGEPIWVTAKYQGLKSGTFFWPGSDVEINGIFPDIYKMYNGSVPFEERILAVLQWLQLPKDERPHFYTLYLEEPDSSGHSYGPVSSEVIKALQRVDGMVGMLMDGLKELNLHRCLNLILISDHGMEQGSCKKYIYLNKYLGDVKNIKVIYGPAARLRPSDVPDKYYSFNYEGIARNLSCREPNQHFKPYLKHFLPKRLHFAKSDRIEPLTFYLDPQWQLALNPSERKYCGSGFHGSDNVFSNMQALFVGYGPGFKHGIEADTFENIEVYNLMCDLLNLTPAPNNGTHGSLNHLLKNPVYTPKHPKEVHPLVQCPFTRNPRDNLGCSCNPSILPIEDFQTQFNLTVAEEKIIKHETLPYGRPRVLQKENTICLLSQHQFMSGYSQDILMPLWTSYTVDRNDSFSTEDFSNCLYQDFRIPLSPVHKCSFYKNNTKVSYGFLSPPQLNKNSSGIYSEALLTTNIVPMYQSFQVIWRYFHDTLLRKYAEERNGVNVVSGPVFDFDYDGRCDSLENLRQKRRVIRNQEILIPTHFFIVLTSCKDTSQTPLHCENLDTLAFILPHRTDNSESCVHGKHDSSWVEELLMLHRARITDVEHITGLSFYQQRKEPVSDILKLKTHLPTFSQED
- Protocol Description: Inhibition of recombinant human ENPP1 transfected in HEK293T cells using cGAMP as substrate at pH 7.5 measured after 3.5 hrs by luminescence based AMP-glo assay
- Type: cell-based
pIC50: −log10 of the molar value.
Property Label: pIC50

Field: example entries. Status: answers known.
| Compound | pIC50 |
| --- | --- |
| COc1cccc2c(NC34CC(NS(N)(=O)=O)(C3)C4)c(C#N)cnc12 | 8.21 |
| COc1cccc2c(N3CCC4(CC3)CC4NS(N)(=O)=O)c(C#N)cnc12 (centres undefined) | 7.63 |
| COc1cccc2c(N3CCC4(CC(NS(N)(=O)=O)C4)C3)c(C#N)cnc12 (centres undefined) | 7.56 |
| COc1cccc2c(NC3CC(NS(N)(=O)=O)C3)c(C#N)cnc12 (centres undefined) | 7.27 |
| COc1cccc2c(N3CCC(C)(CNS(N)(=O)=O)CC3)c(C#N)cnc12 | 8.42 |

[P] COc1cccc2c(N3CCC(C)(CNS(N)(=O)=O)CC3)ncnc12
[Q] COc1cccc2c(N3CCC4(CC3)CC4NS(N)(=O)=O)ncnc12 (centres undefined)
Consider entries P and Q . Which has the numerically lower pIC50? Selection: enter the item's label. Q
(Q: 7.02, P: 7.99)

[I] COc1cccc2c(NC3CC(NS(N)(=O)=O)C3)ncnc12 (centres undefined)
[II] COc1cccc2c(N3CCC(O)(CNS(N)(=O)=O)CC3)c(C#N)cnc12
Recorded pIC50 values differ for I and II ; which one is higher? # respond with the chosen item's label II

[1] COc1cccc2c(N3CCC(F)(CNS(N)(=O)=O)CC3)c(C#N)cnc12
[2] COc1cccc2c(N[C@H]3CC[C@@H](NS(N)(=O)=O)CC3)ncnc12
[3] COc1cccc2c(N3CCC4(CC3)CC(NS(N)(=O)=O)C4)ncnc12
[4] COc1cccc2c(N3CCC(C#N)(CNS(N)(=O)=O)CC3)c(C#N)cnc12
[5] COc1cccc2c(N3CCC(CCP(=O)(O)O)CC3)ncnc12
Let's sort these by pIC50, smallest first. Go ahead? Write the labels out in the order the request specifies. 3, 2, 4, 1, 5
(3: 6.34, 2: 7.56, 4: 8.18, 1: 8.48, 5: 9.30)
